Cited source for all entries: patent US20240409663A1

- SYSTEM TESTED: T1, human GPC3-his tag protein (human, UniProt P51654 25-559, limits assumed)
- T1 construct: recombinant soluble antigen used as analyte in all Biacore runs; also called recombinant GPC3 protein; rhGPC3-His; not shown: His tag
- PROTOCOL DESCRIPTION: SPR Biacore 8K, mAb captured, affinity ranking
OBSERVED PROPERTY: pKd
One number for each entry, as −log10 of the molar value.

Worked cases, pKd given:
Incoming: Entry Hu 52H5D3B8-2 (antibody, V domains shown, humanized 52H5D3B8; also called 52H5D3B8 VH0 + VL1) VH: EVQLVQSGAEVKKPGASVKVSCKASGYTFTDYEMHWVRQAPGQGLEWMGAIHPGSGGTAYNQKFKGRVTMTRDTSISTAYMELSRLRSDDTAVYYCARFYSYAYWGQGTLVTVSS VL: DVVMTQTPLSLSVTPGQPASISCRSSQSLVHSNGNTYLQWYLQKPGQSPQLLIYKVSNRFSGVPDRFSGSGSGTDFTLKISRVEAEDVGVYFCSQSIHVPYTFGGGTKVEIK : reported pKd = ?
Outgoing: 8.24

Incoming: I would be grateful if you could share the reported pKd for Hu 52H5D3B8-8 (antibody, V domains shown, humanized 52H5D3B8; also called 52H5D3B8 VH3 + VL1) VH: EVQLVQSGAEVKKPGASVKVSCKASGYTFTDYEMHWVRQAPGQGLEWMGAIHPGSGGTAYNQKFKGRVTMTADKSISTAYMELSRLRSDDTAVYYCTRFYSYAYWGQGTLVTVSS VL: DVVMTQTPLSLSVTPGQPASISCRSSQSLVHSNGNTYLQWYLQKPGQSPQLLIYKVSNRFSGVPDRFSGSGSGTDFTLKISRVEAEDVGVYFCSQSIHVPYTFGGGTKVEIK .
Outgoing: 8.48

Switching to the query record.
Incoming: Recorded pKd of Hu 52H5D3B8-5 (antibody, V domains shown, humanized 52H5D3B8; also called 52H5D3B8 VH2 + VL0) VH: EVQLVQSGAEVKKPGASVKVSCKASGYTFTDYEMHWVRQAPGQGLEWMGAIHPGSGGTAYNQKFKGRVTMTADTSISTAYMELSRLRSDDTAVYYCTRFYSYAYWGQGTLVTVSS VL: DVVMTQTPLSLSVTPGQPASISCRSSQSLVHSNGNTYLQWYLQKPGQSPQLLIYKVSNRFSGVPDRFSGSGSGTDFTLKISRVEAEDVGVYYCSQSIHVPYTFGGGTKVEIK , please.
Outgoing: 8.54
